procedure.text: μFLUX dissolution/flux test, FaSSIF or FeSSIF donor, acceptor sink buffer receiver
Format: in vitro ADME
condition.description: FeSSIF donor, unformulated powder, initial flux excluding lag time, 37 °C
Structures can show the parent of a compound that is named as a salt.
// reported Flux Fe (±SD; n=3) for each item listed

Example cases with answers are listed next.
                                   molecule         result
0  COC(=O)[C@H](c1ccccc1Cl)N1CCc2sccc2C1 [Clopidogrel bisulfate, clopidogrel bisulfate]  2.168 ± 0.323
1  Cc1cn([C@H]2C[C@H](N=[N+]=[N-])[C@@H](CO)O2)c(=O)[nH]c1=O  0.034 ± 0.002
2                           NNC(=O)c1ccncc1      0.020 ± 0

Consider the additional molecule presented here.
[in] What Flux Fe (±SD; n=3) value was documented for this molecule, CCc1nn(CCCN2CCN(c3cccc(Cl)c3)CC2)c(=O)n1CCOc1ccccc1 [Nefazodone HCl, nefazodone hydrochloride] ?
[out] 1.077 ± 0.084

###

procedure.text: μFLUX dissolution/flux test, FaSSIF or FeSSIF donor, acceptor sink buffer receiver
Format: in vitro ADME
condition.description: FaSSIF donor, unformulated powder, initial flux excluding lag time, 37 °C
Where a name gives a salt, the structure may show the parent alone.
The label criterion met is reserved for Flux Fa (±SD; n=3) strictly under 0.2; criterion not met covers values equal to or above it.

Here are 4 molecules together with their reported answers.
                                   molecule     assigned_class
0  CCc1nn(CCCN2CCN(c3cccc(Cl)c3)CC2)c(=O)n1CCOc1ccccc1 [Nefazodone HCl, nefazodone hydrochloride]  criterion not met
1  COC(=O)[C@H](c1ccccc1Cl)N1CCc2sccc2C1 [Clopidogrel bisulfate, clopidogrel bisulfate]  criterion not met
2  Cc1ccc(-c2cc(C(F)(F)F)nn2-c2ccc(S(N)(=O)=O)cc2)cc1 [Celecoxib, celecoxib]      criterion met
3    NNC(=O)c1ccncc1 [Isoniazid, isoniazid]      criterion met

[in] hey, is Flux Fa (±SD; n=3) for Cc1cn([C@H]2C[C@H](N=[N+]=[N-])[C@@H](CO)O2)c(=O)[nH]c1=O [Zidovudine, zidovudine] lower than 0.2 or not?
[out] criterion met

[in] hey, is Flux Fa (±SD; n=3) for NS(=O)(=O)c1cc(C(=O)O)c(NCc2ccco2)cc1Cl [Furosemide, furosemide] lower than 0.2 or not?
[out] criterion met

###

// reported Flux Fe (±SD; n=3) for each item listed
procedure.text: μFLUX dissolution/flux test, FaSSIF or FeSSIF donor, acceptor sink buffer receiver
Format: in vitro ADME
condition.description: FeSSIF donor, unformulated powder, initial flux excluding lag time, 37 °C
Kindly provide the number alone.

Example cases with answers are listed next.
>>> df
                                   compound  quantitative_readout
0  Cc1ccc(-c2cc(C(F)(F)F)nn2-c2ccc(S(N)(=O)=O)cc2)cc1                 0.632
1  COC1=CC(=O)C[C@@H](C)[C@]12Oc1c(Cl)c(OC)cc(OC)c1C2=O                 0.218

Consider the additional compound presented here.
[in] What Flux Fe (±SD; n=3) value was documented for this compound, NS(=O)(=O)c1cc(C(=O)O)c(NCc2ccco2)cc1Cl [Furosemide, furosemide] ?
[out] 0.208
